# System: BDF1 mice, B16 melanoma ip, median survival T/C
# Assay remarks: NCI In Vivo Anticancer Drug Screen. Data for tumor model B16 Melanoma (intraperitoneal) in B6D2F1 (BDF1) mice
# Condition summary: endpoint: median survival time; dose: 400.0 mg/kg/injection; schedule: Q01DX009 (ip); vehicle: saline
Inconclusive results and toxic doses are left out. Rule for the calls: active = survival T/C of 150% or more; inactive = T/C below 125% in these data.
# valid calls are active, inactive; nothing else

Example entries begin here.
{"columns": ["Compound", "Label value"],
 "data": [
  ["O=C(O)CP(=O)(O)O", "active"],
  ["Clc1ccc2c(c1)C(N1CCOCC1)c1cc(Cl)cc(Cl)c1-2 (stereo not drawn)", "inactive"],
  ["CC(C)(C)CC(N)=O", "inactive"],
  ["COc1cc(C(=O)NCCS(=O)(=O)O)cc(OC)c1OC", "inactive"],
  ["O=[N+]([O-])c1cccc(P(=O)(c2cccc([N+](=O)[O-])c2)c2cccc([N+](=O)[O-])c2)c1", "inactive"]
]}

Q: Record request — test call for N#CCc1ccccc1S(=O)(=O)O
Result: inactive

Q: Record request — test call for CN(C)c1n[nH]c(N)n1
Result: inactive

Q: Record request — test call for CCOC(=O)CCN1CC(C)OC(C)C1 (stereo not drawn)
Result: inactive

Q: Record request — test call for O=c1ncccn1[C@@H]1O[C@H](CO)[C@H](O)C1O (stereo partly drawn)
Result: active

Q: Record request — test call for O=C(Nc1nccs1)C(F)(F)F
Result: inactive

Q: Record request — test call for Cc1ncc(CO)c(CO)c1O
Result: inactive

Q: Record request — test call for CC(=O)CC(=O)NCc1ccncc1
Result: inactive

Q: Record request — test call for CS(=O)(=O)O
Result: inactive
